# target_or_system: human CCR8 (human, UniProt P51685 1-355)
# method_notes: cell-based or functional assay
measured_parameter: hCCL1 (100 nM) residual response in %, Protocol #2, mAb 10 µg/mL (66.7 nM) (%)

binder	quantitative_result
humanized anti-CCR8 mAb 2-14 (antibody, human IgG1, kappa, V domains shown, Humanized, human IgG1 / kappa) VH: QVQLVQSGPEVVKPGASVKVSCKTSGYTFTEYTIHWVRQAPGQSLEWVGGINPNNGNTRYDQKFQGRVTITRDKSASTAYMELRSLTSEDTAVYYCARVARSSGSGPYAMDYWGQGTTVTVSS VL: DVVMTQSPLSLPVTLGDQASISCRCSQSLLHTNGDTYLHWYLQRPGQSPRLLIYKVSNRFSGVPDRFSGSGSGTDFTLKISRVEAEDVGVYFCSQSTHVPYTFGGGTKVEIKR	32

Data origin, for the record: patent US20260167731A1
